# measuredTarget: recombinant full-length HSET (Homo sapiens, UniProt Q9BW19)
# Construct: 5 nM full-length human N-terminal His-tag HSET; His-tag (N)
# Sequence (Q9BW19 1-673): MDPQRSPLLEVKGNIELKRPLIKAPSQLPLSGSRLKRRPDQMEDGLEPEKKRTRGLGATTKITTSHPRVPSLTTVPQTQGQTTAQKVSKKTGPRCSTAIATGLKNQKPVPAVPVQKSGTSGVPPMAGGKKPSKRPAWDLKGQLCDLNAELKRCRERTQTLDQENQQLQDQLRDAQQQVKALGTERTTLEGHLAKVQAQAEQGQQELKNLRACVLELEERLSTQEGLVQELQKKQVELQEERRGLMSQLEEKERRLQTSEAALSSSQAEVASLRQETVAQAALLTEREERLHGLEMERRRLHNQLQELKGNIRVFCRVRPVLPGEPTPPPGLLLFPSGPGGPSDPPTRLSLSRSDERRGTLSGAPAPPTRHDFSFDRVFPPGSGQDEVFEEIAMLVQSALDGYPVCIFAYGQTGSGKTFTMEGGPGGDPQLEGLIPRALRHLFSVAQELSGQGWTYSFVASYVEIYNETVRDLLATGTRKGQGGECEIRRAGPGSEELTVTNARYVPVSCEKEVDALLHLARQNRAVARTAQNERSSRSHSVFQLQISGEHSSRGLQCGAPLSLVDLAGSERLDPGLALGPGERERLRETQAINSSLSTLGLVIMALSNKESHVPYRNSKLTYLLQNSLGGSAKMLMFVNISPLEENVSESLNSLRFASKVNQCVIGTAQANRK
# measurementNotes: ADP-Glo HSET assay (3 μM ATP), microtubule-stimulated ATPase
# Format: biochemical
# testContext: preformed microtubules, 3 μM ATP; mean (±SD) n ≥ 3 (Table 4); read-out: HSET ADP-Glo IC50
pIC50: −log10 of the molar value.
pIC50: recorded values
recordedEndpoint: pIC50

CCOC(=O)c1sc(NC(=O)CCNC(=O)c2cccc(-c3nnn(C)n3)c2)nc1C: 7.57
CCCc1cc(C(=O)N[C@H](Cc2ccc(-c3cccc(OC(F)(F)F)c3)nc2)C(=O)N[C@@H]2CCNC2)sc1C [Compound 1, reference compound]: 6.77
CCOC(=O)c1sc(NC(=O)CCNC(=O)c2cccc(C)c2)nc1C: 5.56
CCCOC(=O)c1sc(NC(=O)C[C@H](CCCN(C)C)NC(=O)c2cccc(-c3noc(C)n3)c2)nc1C: 7.96
CCCOC(=O)c1sc(NC(=O)CCNC(=O)c2cccc(-c3noc(C)n3)c2)nc1C: 7.92
CCOC(=O)c1sc(NC(=O)CCNC(=O)c2cccc(-c3noc(C)n3)c2)cc1C: 7.03
CCOC(=O)c1sc(NC(=O)CCNC(=O)c2cccc(-c3noc(C)n3)c2)nc1C: 7.20
CCCOC(=O)c1sc(NC(=O)C[C@H](CCCNC)NC(=O)c2cccc(-c3noc(C)n3)c2)nc1C: 7.72
